Experiment: Plasma protein binding
Type: in vitro ADME
OUTCOME MEASURE: fraction unbound
Please state the value as a number alone, without comment.

Would you kindly share the measured fraction unbound for Cl.N[C@@H]1CS[C@H](C(=O)O)C1 [Compound 17, hydrochloride] ?
0.74

###

Target: UniProt P80147
Test: Inhibition of GABA-AT, coupled assay with SSDH
Assay type: biochemical
Conditions: competitive inhibition; read-out: Ki (competitive inhibitor of GABA-AT)
Each record here notes measured Ki.
Please state the figure in µM; there is no need to write the unit.

QUERY SMILES	ASSAY VALUE
N[C@@H]1CC[C@H](C(=O)O)C1	870

Consider the additional compound presented here.
Entry N[C@@H]1CN[C@H](C(=O)O)C1 has what Ki?
1300

###

Molecular target: GABA-AT (Sus scrofa (Pig))
Sequence (P80147 29-500 limits assumed): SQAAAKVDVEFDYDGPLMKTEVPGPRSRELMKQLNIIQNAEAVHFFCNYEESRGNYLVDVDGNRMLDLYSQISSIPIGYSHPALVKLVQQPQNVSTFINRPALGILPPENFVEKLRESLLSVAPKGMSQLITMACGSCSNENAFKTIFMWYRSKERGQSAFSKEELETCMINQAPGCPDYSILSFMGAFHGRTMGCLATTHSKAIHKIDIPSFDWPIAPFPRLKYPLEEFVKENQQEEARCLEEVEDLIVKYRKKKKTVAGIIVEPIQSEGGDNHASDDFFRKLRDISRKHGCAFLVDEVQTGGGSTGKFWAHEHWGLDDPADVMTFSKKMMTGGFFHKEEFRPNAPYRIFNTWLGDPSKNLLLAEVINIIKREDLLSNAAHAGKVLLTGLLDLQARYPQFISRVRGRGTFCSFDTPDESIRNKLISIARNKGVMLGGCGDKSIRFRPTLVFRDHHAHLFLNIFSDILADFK
Assay: Inhibition of GABA-AT, coupled assay with SSDH
Format: biochemical
Settings: read-out: Ki (reversible inhibition)
Procedure: GABA-AT was isolated and purified from pig brain by a published procedure. Inhibition constants were determined by monitoring GABA-AT activity in the presence of 0-50 mM concentrations of synthesized analogues using a coupled assay with the enzyme succinic semialdehyde dehydrogenase (SSDH). […] Enzyme activity was determined by observing the change in absorbance at 340 nm at 25° C. […] Subsequent Ki values were determined using the Cheng-Prusoff relationship. […]
Where a name gives a salt, the structure may show the parent alone.
OUTCOME MEASURE: pKi
Expect pKi as a plain number equal to -log10 of the molar concentration.

Lab note: need pKi for N[C@H]1CC(C(=O)O)S(=O)(=O)C1 (mixture of isomers) [Compound 19, hydrochloride] on GABA-AT (Sus scrofa (Pig)), anyone have it?
2.49

###

Target: GABA-AT (Sus scrofa (Pig))
Assay: Inhibition of GABA-AT, coupled assay with SSDH
Type: biochemical
Details: pH 8.5, 25° C., from IC50 by Cheng-Prusoff; read-out: Ki (reversible inhibition)
OUTCOME MEASURE: pKi
Answer as the number alone; pKi is minus log10 of concentration in mol/L.

Notebook entry, GABA-AT (Sus scrofa (Pig)) assay: pKi of N[C@@H]1CC(C(=O)O)S(=O)(=O)C1 (stereo partly shown) = ?
2.12
